All values here come from ChEMBL document CHEMBL4680318.

# System: SF-295
# Test Method Notes: Growth inhibition of human SF-295 cells measured after 48 hrs by sulforhodamine B assay
# Assay type: functional
Consider the following molecules; for each one, report its GI50.
// note: answer is a bare numeric in µM

GI50 on SF-295 for CC(C)(O)[C@H]1Cc2c(cc(O)c3c(=O)c(-c4ccc(O)cc4)coc23)O1 is 52.5

GI50 on SF-295 for O=c1c(-c2ccc(O)cc2)coc2cc(O)cc(O)c12 is 28.8

GI50 on SF-295 for CC(C)(O)[C@@H]1Cc2c(cc(O)c3c(=O)c(-c4ccc(O)cc4)coc23)O1 is 0.275

GI50 on SF-295 for COc1cc([C@@H]2c3cc4c(cc3[C@@H](O[C@@H]3O[C@@H]5CO[C@@H](C)O[C@H]5[C@H](O)[C@H]3O)[C@H]3COC(=O)[C@H]23)OCO4)cc(OC)c1O [ETOPOSIDE] is 2.75
